# Test system: Saccharomyces cerevisiae;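 further: PSI is a weighted mean of sequencing reads over stability bins, variants kept only with over 10 reads, mCherry proximal and sfGFP distal, peptide attached via GGGS linker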
# assay-notes: protein stability index of tFT-peptide fusion (C-terminal peptide) (PSI (0-1 scale)); higher = more stable (slower turnover)
# test-context: genetic background: cdc53-1; temperature: 37 C
Measured protein stability index of individual entries
endpoint-label: protein stability index

[[record]]
seq_string = "LQSYIFSVRGIS"
number = 0.697

[[record]]
seq_string = "KKKEILVYIIQE"
number = 0.612

[[record]]
seq_string = "GSLVLSCLMSRA"
number = 0.603

[[record]]
seq_string = "VVMASSIIVVAG"
number = 0.0512

[[record]]
seq_string = "GLSVLLTCIHFV"
number = 0.65

[[record]]
seq_string = "SWVSVLSELLAC"
number = 0.249

[[record]]
seq_string = "GVARALFLWKAV"
number = 0.709

[[record]]
seq_string = "FLVVSSVGFPLL"
number = 0.73

[[record]]
seq_string = "RFPFFLPFIAFL"
number = 0.539

[[record]]
seq_string = "WSHVPLAPLSCF"
number = 0.442

[[record]]
seq_string = "LLVLRQYFFFFV"
number = 0.531

[[record]]
seq_string = "VLCMSIFIVFGI"
number = 0.287

[[record]]
seq_string = "YVSSCLLWLCFV"
number = 0.551

[[record]]
seq_string = "YTVRRVWLVRSR"
number = 0.521

[[record]]
seq_string = "GGRLGRAGGGGR"
number = 0.724

[[record]]
seq_string = "RLSTTTTKQFIH"
number = 0.74

[[record]]
seq_string = "VFGSVAALRLLM"
number = 0.732

[[record]]
seq_string = "RFCRVERAILLR"
number = 0.251

[[record]]
seq_string = "LVFRVSLVEVVL"
number = 0.299

[[record]]
seq_string = "AITHVILLVTPL"
number = 0.58

[[record]]
seq_string = "WLCVFVFGIFFV"
number = 0.162

[[record]]
seq_string = "VRELGVGGWRRQ"
number = 0.7

[[record]]
seq_string = "LLLRWWLYSCCP"
number = 0.495

[[record]]
seq_string = "GGFHWCPSASRG"
number = 0.755

[[record]]
seq_string = "LGPLGWLVLLLV"
number = 0.425

[[record]]
seq_string = "RTRVRKTRIRTC"
number = 0.693

[[record]]
seq_string = "YKLRAVFVCSVT"
number = 0.633

[[record]]
seq_string = "RLICFFSMYLRF"
number = 0.17

[[record]]
seq_string = "SLAPPPPLLILR"
number = 0.325

[[record]]
seq_string = "MLFALLTIVFLG"
number = 0.326

[[record]]
seq_string = "VQLFCLRREMII"
number = 0.609

[[record]]
seq_string = "INHVIHAKLRFS"
number = 0.675

[[record]]
seq_string = "HHRLRQGLRRIN"
number = 0.728

[[record]]
seq_string = "LVFPRWACSLVF"
number = 0.366

[[record]]
seq_string = "FFVWGVFLGVSW"
number = 0.264

[[record]]
seq_string = "FMCFVLPVFVLV"
number = 0.282

[[record]]
seq_string = "LFTVCMIIQMVH"
number = 0.185

[[record]]
seq_string = "SRRSIGAYLFVS"
number = 0.761

[[record]]
seq_string = "CSLRGLFLVVSV"
number = 0.396

[[record]]
seq_string = "GQFVISVRFLYE"
number = 0.503

[[record]]
seq_string = "CVMWFLLSAYYL"
number = 0.429

[[record]]
seq_string = "MALAVRVVICGA"
number = 0.11

[[record]]
seq_string = "PLFLLTFAITLV"
number = 0.194

[[record]]
seq_string = "LHASCVYTILLV"
number = 0.458

[[record]]
seq_string = "VYEVELSVRVTV"
number = 0.56

[[record]]
seq_string = "HRLQFKGYPICA"
number = 0.255

[[record]]
seq_string = "FLPHLMCVFSFC"
number = 0.489

[[record]]
seq_string = "FLYFLLQFLCSG"
number = 0.544

[[record]]
seq_string = "FPVSSRSFSFIP"
number = 0.759

[[record]]
seq_string = "PHRLSRFILRLL"
number = 0.683

[[record]]
seq_string = "AAFLGVLCWCWG"
number = 0.465

[[record]]
seq_string = "GRVETIEFLFLR"
number = 0.433

[[record]]
seq_string = "MALAVRVVFCGA"
number = 0.338

[[record]]
seq_string = "FVSFFRWLLVSI"
number = 0.201

[[record]]
seq_string = "SPRGVVIAFLVC"
number = 0.569

[[record]]
seq_string = "VWFCCLFFCFFV"
number = 0.448

[[record]]
seq_string = "CMLPWPILLCPF"
number = 0.329

[[record]]
seq_string = "ALMTFTLVFTYM"
number = 0.296

[[record]]
seq_string = "SQVILFFLSLCR"
number = 0.654

[[record]]
seq_string = "LSTFFIFLRILR"
number = 0.218

[[record]]
seq_string = "SLTNYQRLIHVC"
number = 0.245

[[record]]
seq_string = "ALLLLLRRFFLV"
number = 0.659

[[record]]
seq_string = "VFFLFLVFLTVV"
number = 0.164

[[record]]
seq_string = "PPIPTPSPIPLH"
number = 0.726

[[record]]
seq_string = "LGWFVDFVFVVW"
number = 0.426

[[record]]
seq_string = "QILVSYSFLYFF"
number = 0.592

[[record]]
seq_string = "LFFFLVWSLSVF"
number = 0.0512

[[record]]
seq_string = "LCSLSIFVLFSC"
number = 0.309

[[record]]
seq_string = "IKIQPKKRISLI"
number = 0.707

[[record]]
seq_string = "YCDPSLIWLYLM"
number = 0.714

[[record]]
seq_string = "RSFGGRPWVLFL"
number = 0.733

[[record]]
seq_string = "LVRGGLTNLFLF"
number = 0.78

[[record]]
seq_string = "VLLYRIAPRLLH"
number = 0.684

[[record]]
seq_string = "GWCLLRVLVLVW"
number = 0.043

[[record]]
seq_string = "CYSLLFVSVILF"
number = 0.158

[[record]]
seq_string = "PYPSVIFFLHVY"
number = 0.572

[[record]]
seq_string = "LFDYEAGEVMGG"
number = 0.747

[[record]]
seq_string = "SLARPGLCFVIA"
number = 0.583

[[record]]
seq_string = "GEVLWAVLLVSC"
number = 0.208

[[record]]
seq_string = "LVLSVWFFNCTS"
number = 0.569

[[record]]
seq_string = "RYKIEKKKLMNN"
number = 0.741

[[record]]
seq_string = "FGEDFCHLLWCC"
number = 0.713

